Biological target: 5-hydroxytryptamine receptor 2A (Homo sapiens) (UniProt P28223)
Sequence (P28223 whole entry, looked up): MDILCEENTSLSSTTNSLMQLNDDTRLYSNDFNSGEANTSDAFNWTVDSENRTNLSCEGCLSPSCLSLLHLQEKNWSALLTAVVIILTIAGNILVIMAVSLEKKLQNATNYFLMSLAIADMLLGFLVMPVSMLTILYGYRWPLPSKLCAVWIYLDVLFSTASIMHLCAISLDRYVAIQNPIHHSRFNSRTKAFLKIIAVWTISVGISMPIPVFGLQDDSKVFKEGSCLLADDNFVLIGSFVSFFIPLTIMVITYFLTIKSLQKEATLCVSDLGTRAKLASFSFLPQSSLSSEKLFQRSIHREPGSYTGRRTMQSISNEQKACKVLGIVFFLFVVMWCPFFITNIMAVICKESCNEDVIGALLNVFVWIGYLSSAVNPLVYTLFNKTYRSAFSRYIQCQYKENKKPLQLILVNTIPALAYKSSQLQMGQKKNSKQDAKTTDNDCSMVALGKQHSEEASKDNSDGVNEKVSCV
Experiment: 5-hydroxytryptamine receptor 2A (HTR2A) small molecule antagonists, cell-based qHTS assay (AID 1963586); further: nearly all actives have a fitted effect of over 45% in size
Conditions: HTR2A-CHO cells, DOI-induced calcium flux, fluorescence; series mostly up to 61.5 µM
Records with an inconclusive call do not appear. Calls of active or inactive are those of the source. The call rests on the fitted dose curve.
EXPERIMENTAL_READOUT: outcome

[[record]]
compound = "C#CCC1=C(C)C(OC(=O)C2C(C=C(C)C)C2(C)C)CC1=O (stereo not drawn)"
subject_of_test = "5-hydroxytryptamine receptor 2A (Homo sapiens) (UniProt P28223)"
measured_value = "inactive"

[[record]]
compound = "c1cc[c]([Hg][c]2ccccc2)cc1"
subject_of_test = "5-hydroxytryptamine receptor 2A (Homo sapiens) (UniProt P28223)"
measured_value = "inactive"

[[record]]
compound = "Oc1ccc(C2(c3ccc(O)cc3)c3ccccc3-c3ccccc32)cc1"
subject_of_test = "5-hydroxytryptamine receptor 2A (Homo sapiens) (UniProt P28223)"
measured_value = "inactive"


###

Experiment: Nuclear factor erythroid 2-related factor 2/antioxidant responsive element (Nrf2/ARE) small molecule agonists: luciferase reporter gene qHTS assay in human keratinocytes (AID 1919969); further: nearly all actives have a fitted effect of over 35% in size
Conditions: KeratinoSens HaCaT ARE-luciferase, luminescence, 24 h; series mostly up to 92.4 µM
Records with an inconclusive call do not appear. The source made the active and inactive calls. The call rests on the fitted dose curve.
Possible outcomes: active, inactive

[[record]]
compound = "COCC(C)N(C(=O)CCl)c1c(C)csc1C (configuration not stated)"
category_label = "active"

[[record]]
compound = "CC1N=C(N)OC1c1ccccc1 (configuration not stated)"
category_label = "inactive"

[[record]]
compound = "ClSC(Cl)(Cl)Cl"
category_label = "inactive"

[[record]]
compound = "CCOC(=O)CC(=O)CCl"
category_label = "active"

[[record]]
compound = "O=CC(Br)(Br)Br"
category_label = "active"

[[record]]
compound = "CC(=O)OC1(c2ccccc2)CCN(CCc2ccccc2)CC1"
category_label = "inactive"

[[record]]
compound = "CCC1(CC)C(=O)NC(=O)NC1=O"
category_label = "inactive"

[[record]]
compound = "CC(C)N(Cc1ccccc1)C(=O)C(C)(C)C"
category_label = "inactive"

[[record]]
compound = "CN1[C@@H]2CC[C@H]1CC(OC(=O)c1cc(Cl)cc(Cl)c1)C2 (some centres not stated)"
category_label = "inactive"

[[record]]
compound = "CC(=O)c1cc(C(C)(C)C)cc2c1CCC2(C)C"
category_label = "inactive"

[[record]]
compound = "CCN(CC)c1c([N+](=O)[O-])cc(C(F)(F)F)c(N)c1[N+](=O)[O-]"
category_label = "inactive"

[[record]]
compound = "CC[C@H]1C[C@@H]2C[C@H]3c4[nH]c5ccc(OC)cc5c4CCN(C2)[C@@H]13"
category_label = "active"

[[record]]
compound = "C[C@H]1CNCCc2ccc(Cl)cc21"
category_label = "inactive"

[[record]]
compound = "C=C(Cl)Cl"
category_label = "inactive"

[[record]]
compound = "O=Cc1ccc2c(c1)OCO2"
category_label = "inactive"

[[record]]
compound = "O=[N+]([O-])c1cc([N+](=O)[O-])c2ccccc2c1"
category_label = "active"

[[record]]
compound = "COC(=O)C(C)N(C(=O)Cc1ccccc1)c1c(C)cccc1C (configuration not stated)"
category_label = "inactive"

[[record]]
compound = "O=C(NC(=O)c1c(F)cccc1F)Nc1cc(Cl)c(Oc2ncc(C(F)(F)F)cc2Cl)c(Cl)c1"
category_label = "inactive"

[[record]]
compound = "CCCCN(CCCC)C(=S)[S-].CCCCN(CCCC)C(=S)[S-].[Zn+2]"
category_label = "active"

[[record]]
compound = "C=C1C[C@@H]2[C@H](CC[C@]3(C)C(=O)CC[C@@H]23)[C@@]2(C)C=CC(=O)C=C12"
category_label = "active"

[[record]]
compound = "CCOC(=O)CBr"
category_label = "inactive"

[[record]]
compound = "O=S(=O)(O)F"
category_label = "inactive"

[[record]]
compound = "NC(=O)C(Cl)(Cl)Cl"
category_label = "inactive"

[[record]]
compound = "O=C(Cl)C(Cl)(Cl)Cl"
category_label = "inactive"

[[record]]
compound = "CN/C(=N\\[N+](=O)[O-])NCc1cnc(Cl)s1"
category_label = "inactive"

[[record]]
compound = "COC(C)(C)CCC[C@H](C)C/C=C/C(C)=C/C(=O)OC(C)C"
category_label = "active"

[[record]]
compound = "CCCCC(CC)COC(=O)OOC(C)(C)C (configuration not stated)"
category_label = "inactive"


###

Assay: Nuclear factor erythroid 2-related factor 2/antioxidant responsive element (Nrf2/ARE) small molecule agonists: qHTS cell viability counter screen in human keratinocytes (AID 1919968); further: nearly all actives have a fitted effect of over 55% in size
Details: KeratinoSens HaCaT ARE cells viability, CellTiter-Fluor, 24 h; series mostly up to 92.4 µM
Results filed as inconclusive are left out. Calls of active or inactive are those of the source. The call rests on the fitted dose curve; in most records, active means well fitted cell-killing curve with a large enough effect in the repeat runs; inconclusive means weak or mixed curves, or effect the other way; inactive means flat fitted curve, though single readings scatter.
Possible outcomes: active, inactive

[[record]]
molecule = "COP(=O)(OC)Oc1ccc([N+](=O)[O-])cc1"
category_label = "inactive"

[[record]]
molecule = "Cc1cc(=O)[nH]o1"
category_label = "inactive"

[[record]]
molecule = "N=C(N)[Se]"
category_label = "inactive"

[[record]]
molecule = "CC[C@H](O)C(C[C@H](C)N(C)C)(c1ccccc1)c1ccccc1"
category_label = "inactive"

[[record]]
molecule = "NP(N)(=O)NC(=O)c1ccc(F)cc1"
category_label = "inactive"

[[record]]
molecule = "CCC(=O)c1ccc(Cl)cc1"
category_label = "inactive"

[[record]]
molecule = "CCC1(c2ccccc2)C(=O)N(COC)C(=O)N(COC)C1=O"
category_label = "inactive"

[[record]]
molecule = "O=C(CCl)NCO"
category_label = "inactive"

[[record]]
molecule = "OC(c1ccccc1)(c1ccccc1)C1CCNCC1"
category_label = "inactive"

[[record]]
molecule = "Oc1ccc(C(=C(Cl)Cl)c2ccc(O)cc2)cc1"
category_label = "active"

[[record]]
molecule = "Cc1cccc(C)c1NC1=NCCCS1"
category_label = "inactive"

[[record]]
molecule = "CCN(CC)c1c([N+](=O)[O-])cc(C(F)(F)F)c(N)c1[N+](=O)[O-]"
category_label = "inactive"

[[record]]
molecule = "CC(C)(C)OC(=O)c1ncn2c1[C@@H]1CCCN1C(=O)c1c(Br)cccc1-2"
category_label = "inactive"

[[record]]
molecule = "CCN(CC)C(=O)N[C@@H]1C=C2c3cccc4[nH]cc(c34)C[C@@H]2N(C)C1"
category_label = "inactive"

[[record]]
molecule = "COP(=S)(NC(C)C)Oc1ccc(C)cc1[N+](=O)[O-] (stereo not drawn)"
category_label = "inactive"

[[record]]
molecule = "CCC1CCC(=O)O1 (stereo not drawn)"
category_label = "inactive"

[[record]]
molecule = "O=NN1CCN(N=O)CC1"
category_label = "inactive"

[[record]]
molecule = "C[C@]12CC[C@H]3[C@@H](CCC4=CC(=O)CC[C@@H]43)[C@@H]1CC[C@@H]2OC(=O)CCc1ccco1"
category_label = "inactive"

[[record]]
molecule = "Nc1cc(Cl)ccc1Cl"
category_label = "inactive"

[[record]]
molecule = "C[C@]12CC[C@H]3[C@@H](CCC4=CC(=O)CC[C@@]43C)[C@@H]1CC[C@@H]2C(=O)O"
category_label = "inactive"

[[record]]
molecule = "Cc1cc(C)c(C(=O)P(=O)(C(=O)c2c(C)cc(C)cc2C)c2ccccc2)c(C)c1"
category_label = "inactive"

[[record]]
molecule = "O=[N+]([O-])c1cccc2cccc([N+](=O)[O-])c12"
category_label = "inactive"

[[record]]
molecule = "[Cl][Sb]([Cl])[Cl]"
category_label = "inactive"

[[record]]
molecule = "ClCCCCBr"
category_label = "inactive"

[[record]]
molecule = "CCC1(CCC(C)C)C(=O)NC(=O)NC1=O"
category_label = "inactive"

[[record]]
molecule = "CCOP(=S)(OCC)SCCS(=O)(=O)CC"
category_label = "inactive"

[[record]]
molecule = "CCNc1nc(Cl)nc(NC(C)(C)C)n1"
category_label = "inactive"

[[record]]
molecule = "CC[C@@H](CO)NC(=O)[C@@H]1C=C2c3cccc4c3c(cn4C)C[C@H]2N(C)C1"
category_label = "inactive"

[[record]]
molecule = "CCOP(=S)(OCC)SCSCC"
category_label = "inactive"

[[record]]
molecule = "CN1C(=O)CN=C(c2ccccc2)c2cc([N+](=O)[O-])ccc21"
category_label = "inactive"

[[record]]
molecule = "C[C@@H](Oc1ccc(Cl)cc1Cl)C(=O)O"
category_label = "inactive"

[[record]]
molecule = "CCN(CC)C(=O)[C@@H]1C=C2c3cccc4[nH]cc(c34)C[C@H]2N(C)C1"
category_label = "inactive"

[[record]]
molecule = "OP(O)c1ccccc1"
category_label = "inactive"

[[record]]
molecule = "C=CC(=O)OCC(COC(=O)C=C)(COC(=O)C=C)COC(=O)C=C"
category_label = "active"

[[record]]
molecule = "ClCCCCl"
category_label = "inactive"

[[record]]
molecule = "CCCCCCCCCCCCCN1CC(C)OC(C)C1 (stereo not drawn)"
category_label = "inactive"

[[record]]
molecule = "CCOC1Oc2ccc(OS(C)(=O)=O)cc2C1(C)C (stereo not drawn)"
category_label = "inactive"

[[record]]
molecule = "C[N+](C)=CCl"
category_label = "inactive"

[[record]]
molecule = "CCCCCCCCc1ccc(O)cc1"
category_label = "active"

[[record]]
molecule = "CC(C)(C)c1ccc(OP(=O)(Oc2ccccc2)Oc2ccccc2)cc1"
category_label = "inactive"

[[record]]
molecule = "CCOP(=S)(OCC)Oc1cc(-c2ccccc2)on1"
category_label = "inactive"

[[record]]
molecule = "CC(C)(C)OO"
category_label = "inactive"

[[record]]
molecule = "COc1ccc(-c2ccccc2)cc1NNC(=O)OC(C)C"
category_label = "inactive"

[[record]]
molecule = "Oc1ccc(C2(c3ccc(O)cc3)c3ccccc3-c3ccccc32)cc1"
category_label = "active"

[[record]]
molecule = "CCCN(CCC)C(=O)Cc1c(-c2ccc(Cl)cc2)nc2ccc(Cl)cn12"
category_label = "inactive"

[[record]]
molecule = "C[As+](C)(C)CC(=O)[O-]"
category_label = "inactive"

[[record]]
molecule = "CC(=O)OC(c1ccccc1)C(Cl)(Cl)Cl (stereo not drawn)"
category_label = "inactive"

[[record]]
molecule = "CCOC(=O)Cc1ccccc1"
category_label = "inactive"

[[record]]
molecule = "CC(O)(CS(=O)(=O)c1ccc(F)cc1)C(=O)Nc1ccc(C#N)c(C(F)(F)F)c1 (stereo not drawn)"
category_label = "inactive"

[[record]]
molecule = "CC1(C)COP(Oc2ccccc2)OC1"
category_label = "inactive"

[[record]]
molecule = "COC1=CC(=O)O[C@@H](/C=C/c2ccccc2)C1"
category_label = "inactive"

[[record]]
molecule = "CCC(C)c1cc(C(C)(C)C)cc(-n2nc3ccccc3n2)c1O (stereo not drawn)"
category_label = "inactive"

[[record]]
molecule = "O=S1(=O)OCCO1"
category_label = "inactive"

